All figures here come from patent US9216999B2.

measured.target: UniProt:P23458
method.notes: Enzyme assay (Assay Example^a 1), JAK1
Assay type: biochemical
conditions: ATP 100 μM
experimental.endpoint: log10 of IC50 (log10 of the value in µM)
Remember, log10 of IC50, in µM.

INSERT INTO assay_data (compound, experimental_endpoint, value_observed) VALUES
  ('FC1(F)Oc2cccc(CN3CCC(c4nnn5cnc6[nH]ccc6c45)CC3)c2O1', 'log10 of IC50', -1.41),
  ('N#CC1CC12CCC(c1nnn3cnc4[nH]ccc4c13)CC2 (stereo not shown)', 'log10 of IC50', -2.47),
  ('Brc1csc(CN2CCC(c3nnn4cnc5[nH]ccc5c34)CC2)c1', 'log10 of IC50', -2.82),
  ('c1cc2c(ncn3nnc([C@H]4CC[C@H](CN5CCSC5)CC4)c23)[nH]1', 'log10 of IC50', -2.15),
  ('N#Cc1ccc(CCNC[C@H]2CC[C@H](c3nnn4cnc5[nH]ccc5c34)CC2)cc1', 'log10 of IC50', -2.28);

QUERY: I have this compound here, O=C(CC(F)(F)F)NC[C@H]1CC[C@H](c2nnn3cnc4[nH]ccc4c23)CC1 , and I need its recorded log10 of IC50.
RESULT: -2.82

QUERY: Would you mind doing FC(F)(F)C(N[C@H]1CC[C@H](c2nnn3cnc4[nH]ccc4c23)CC1)C(F)(F)F [400b] as well?
RESULT: -1.38

QUERY: Would you mind doing c1cc2c(ncn3nnc([C@H]4CC[C@H](CNC5CSC5)CC4)c23)[nH]1 as well?
RESULT: -1.92

QUERY: Would you mind doing Cc1ccc(CN(C[C@H]2CC[C@H](c3nnn4cnc5[nH]ccc5c34)CC2)C(=O)CC#N)o1 as well?
RESULT: -1.66

QUERY: Would you mind doing O=C(NC[C@@H](O)c1ccccc1)[C@H]1CC[C@H](c2nnn3cnc4[nH]ccc4c23)CC1 as well?
RESULT: -2.54

QUERY: Would you mind doing CC1(C)CC1NC[C@H]1CC[C@H](c2nnn3cnc4[nH]ccc4c23)CC1 (stereo partly shown) as well?
RESULT: -2.12

QUERY: Would you mind doing CC(C)(C)OC(=O)NCC1CCN(C[C@H]2CC[C@H](c3nnn4cnc5[nH]ccc5c34)CC2)CC1 as well?
RESULT: -1.60

QUERY: Would you mind doing C=C1CCC(c2nnn3cnc4[nH]ccc4c23)CC1 as well?
RESULT: -2.09

QUERY: Would you mind doing CC(C)(C)OC(=O)N1CC[C@H](NC[C@H]2CC[C@H](c3nnn4cnc5[nH]ccc5c34)CC2)C1 as well?
RESULT: -1.54

QUERY: Would you mind doing N#Cc1ccc(N2CCC(c3nnn4cnc5[nH]ccc5c34)CC2)cc1 as well?
RESULT: -1.72

QUERY: Would you mind doing O=C(CN[C@H]1CC[C@H](c2nnn3cnc4[nH]ccc4c23)CC1)NCC(F)(F)F [384b] as well?
RESULT: -1.66

###

Below, each entry is listed with its recorded IC50.
measured.target: Tyk2 (Homo sapiens (Human), UniProt P29597)
Sequence (P29597 whole entry): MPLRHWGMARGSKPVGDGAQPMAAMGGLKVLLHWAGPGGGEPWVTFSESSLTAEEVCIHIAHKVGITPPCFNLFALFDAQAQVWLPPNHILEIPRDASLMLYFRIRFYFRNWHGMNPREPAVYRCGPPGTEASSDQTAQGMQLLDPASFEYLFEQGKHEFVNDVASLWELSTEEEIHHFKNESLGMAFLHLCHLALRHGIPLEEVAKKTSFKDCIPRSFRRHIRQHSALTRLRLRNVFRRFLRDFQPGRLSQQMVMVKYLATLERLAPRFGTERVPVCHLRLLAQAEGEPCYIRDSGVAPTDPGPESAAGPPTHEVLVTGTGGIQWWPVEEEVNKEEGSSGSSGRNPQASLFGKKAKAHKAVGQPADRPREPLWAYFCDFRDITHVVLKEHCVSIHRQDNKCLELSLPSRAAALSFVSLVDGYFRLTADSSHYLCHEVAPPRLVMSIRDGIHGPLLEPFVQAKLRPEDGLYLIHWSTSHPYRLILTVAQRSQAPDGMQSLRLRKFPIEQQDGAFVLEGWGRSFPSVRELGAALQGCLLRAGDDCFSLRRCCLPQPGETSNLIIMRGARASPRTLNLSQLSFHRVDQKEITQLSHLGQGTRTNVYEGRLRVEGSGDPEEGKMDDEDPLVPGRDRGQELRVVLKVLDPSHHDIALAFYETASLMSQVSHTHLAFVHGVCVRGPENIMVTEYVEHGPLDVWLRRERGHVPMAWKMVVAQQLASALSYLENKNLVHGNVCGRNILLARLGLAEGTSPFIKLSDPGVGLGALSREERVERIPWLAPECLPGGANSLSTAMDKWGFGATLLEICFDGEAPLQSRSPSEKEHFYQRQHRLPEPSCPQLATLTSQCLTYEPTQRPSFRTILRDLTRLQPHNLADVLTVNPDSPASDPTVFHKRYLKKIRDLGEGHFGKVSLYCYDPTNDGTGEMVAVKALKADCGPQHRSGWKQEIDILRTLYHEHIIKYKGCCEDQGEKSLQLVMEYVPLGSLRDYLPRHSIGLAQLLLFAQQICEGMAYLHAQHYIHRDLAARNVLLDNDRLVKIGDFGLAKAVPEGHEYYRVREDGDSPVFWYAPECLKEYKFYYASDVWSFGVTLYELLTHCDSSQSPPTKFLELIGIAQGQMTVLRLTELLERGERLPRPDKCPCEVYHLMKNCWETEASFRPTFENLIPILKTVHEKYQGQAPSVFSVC
method.notes: Enzyme assay (Assay Example^a 1), Tyk2
Assay type: biochemical
conditions: ATP 100 μM
Give the value, in units of µM, as a plain number.

Solved cases (2 shown):
INSERT INTO results (compound, experimental_endpoint, value_observed) VALUES
  ('N#C[C@H]1CC[C@H](c2nnn3cnc4[nH]ccc4c23)CC1 [compound 430]', 'IC50', 0.41),
  ('CSc1ccc(C(O)(CN[C@H]2CC[C@H](c3nnn4cnc5[nH]ccc5c34)CC2)C(F)(F)F)cc1 (stereo partly drawn) [386b]', 'IC50', 0.39);

Please turn your attention to the following entry.
QUERY: I have this compound here, O[C@H]1Cc2ccccc2[C@H]1NC1CCC(c2nnn3cnc4[nH]ccc4c23)CC1 (mixture of isomers) [compound 378] , and I need its recorded IC50.
RESULT: 0.2
